- test_description: P. aeruginosa biofilm formation inhibitors, primary screen, PAO1 strain, BacTiter-Glo luminescence, LB-PBS (AID 1144)
- condition_context: 12 h, higher = more signal
Activity calls are given as the source filed them. How the calls were made is not given here.
Here, each record is paired with measured z-score data.
measurement_name: z-score

compound: CCN1C(=O)[C@H]2[C@H]3[C@H](O)[C@H](O)CC(=O)[C@H]3CC[C@H]2C1=O
measured_value: -0.212 (inactive)
//
compound: CCC=CCCC(OC(=O)c1ccc(Br)cc1)C1=CCCCC1=O (configuration not stated)
measured_value: 1.45 (inactive)
//
compound: CCOC(=O)[C@H](CC(C)C)NC(=O)CCC1CC(OC(=O)NCCc2ccc(F)cc2)CC2(CCCC(COC(=O)NCCc3ccccc3OC)O2)O1 (some centres not stated)
measured_value: -0.256 (inactive)
//
compound: CCOC(=O)[C@H](Cc1ccccc1)NC(=O)CCC1CC(OC(=O)NCc2cccc3ccccc23)CC2(CCCC(COC(=O)NCC(c3ccccc3)c3ccccc3)O2)O1 (some centres not stated)
measured_value: -0.873 (inactive)
//
compound: COc1ccc(COC(=O)NN=C2C[C@@H](O)[C@@H](O)[C@@H]3[C@@H]4C(=O)N(Cc5ccccc5)C(=O)[C@@H]4CC[C@H]23)cc1
measured_value: 0.43 (inactive)
//
compound: Cc1cc2c(nc1C)CCCCN2CC(C)ON=C1[C@H]2CCn3c(=O)n(-c4ccccc4)c(=O)n3[C@H]2[C@H](O)[C@@H]2O[C@H]12 (some centres not stated)
measured_value: 0.888 (inactive)
//
compound: CCCNC(=O)OC[C@H]1O[C@H](CCON=C(C)CCN2CCc3nc(CC)c(CC)cc3C2)C=C[C@@H]1Oc1ccc(OC)cc1
measured_value: -0.546 (inactive)

* * *

- test_description: PSAC antagonists in infected red cells, primary screen, cell-based, P. falciparum Indochina, OD700, 1 h (AID 1154)
- condition_context: P. falciparum Indochina infected RBC osmotic lysis, higher = more signal, called active from +8 up or from −8 down
# label = Fulfilled if z-score >= 0.7 else Not fulfilled

compound: COc1cccc([C@H]2Oc3ccc(OC)cc3C(=NOC[C@@H](O)COCc3ccco3)[C@@H]2O)c1
class_name: Not fulfilled
--
compound: CC(C)(C)N1C(=O)[C@H]2[C@H]3[C@H](O)C=CC(=O)[C@@H]3CC[C@H]2C1=O
class_name: Not fulfilled
--
compound: O=C1[C@H]2[C@H]3[C@H](O)[C@H](O)CC(=NOCc4ccccc4)[C@H]3CC[C@H]2C(=O)N1Cc1ccc2c(c1)OCO2
class_name: Fulfilled
--
compound: Cn1c(=O)n2n(c1=O)[C@H]1[C@H](O)[C@@H]3O[C@@H]3C(=NOCc3ccccc3)[C@H]1CC2
class_name: Not fulfilled
--
compound: CCCNC(=O)OC[C@H]1O[C@H](CCON=C(C)CCN2CCCc3nc(C)c(C)cc32)C=C[C@@H]1Oc1ccc(OC)cc1
class_name: Fulfilled
--
compound: CCOC(=O)[C@H](CC(C)C)NC(=O)CCC1CC(OC(=O)NCc2cccc3ccccc23)CC2(CCCC(COC(=O)NCCOc3ccccc3)O2)O1 (stereo partly drawn)
class_name: Not fulfilled
--
compound: COc1ccc(O[C@@H]2[C@H](O)CO[C@H]2C=Cc2ccccc2)cc1
class_name: Fulfilled
